- Tested on: 485368-065-R3-J5-PDC spheroids with HUVEC/MSC, viability;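 also: spheroids exposed to agents for seven days before readout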
- Experiment Summary: Anticancer human tumor 485368-065-R3-J5-PDC patient-derived pancreatic carcinoma cell line growth inhibition [RAS]
- Measurement Conditions: curve of first compound; second compound 0.00949 µM
Below: a set of entries, each annotated with reported IC50.
Measure: IC50

Compound: C[C@@H](NC(=O)c1ncnc(N)c1Cl)c1ncc(C(=O)Nc2cc(C(F)(F)F)c(Cl)cn2)s1 + CCn1c(-c2cccnc2C(C)OC)c2c3cc(ccc31)N1CCOC(CC(NC(=O)C(C(C)C)N(C)C(=O)C3(F)CCN(C(=O)C#CC(C)(C)N(C)C)CC3)C(=O)N3CCCC(N3)C(=O)OCC(C)(C)C2)C1
Target Or Test System: 485368-065-R3-J5-PDC spheroids with HUVEC/MSC, viability;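 also: spheroids exposed to agents for seven days before readout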
Measure: IC50
Obs Value: > 10000 nM
//
Compound: CC(Nc1ccc2c(c1)OCCn1cc(N3C(=O)OCC3C(F)F)nc1-2)C(N)=O (stereo not given) + CCn1c(-c2cc(N3CCN(C)CC3)cnc2C(C)OC)c2c3cc(ccc31)-c1csc(n1)CC(NC(=O)C1CC1C)C(=O)N1CCCC(N1)C(=O)OCC(C)(C)C2
Target Or Test System: 485368-065-R3-J5-PDC spheroids with HUVEC/MSC, viability;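 also: spheroids exposed to agents for seven days before readout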
Measure: IC50
Obs Value: < 31.6 nM
//
Compound: O=C(c1ccc(F)c(F)c1Nc1ccc(I)cc1F)N1CC(O)([C@@H]2CCCCN2)C1 + CCn1c(-c2cc(N3CCN(C)CC3)cnc2C(C)OC)c2c3cc(ccc31)-c1csc(n1)CC(NC(=O)C1CC1C)C(=O)N1CCCC(N1)C(=O)OCC(C)(C)C2
Target Or Test System: 485368-065-R3-J5-PDC spheroids with HUVEC/MSC, viability;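 also: spheroids exposed to agents for seven days before readout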
Measure: IC50
Obs Value: < 3.16 nM
//
Compound: CC1(C)CCC(Nc2ncc(C(F)(F)F)c(-c3c[nH]c4c(P(C)(C)=O)c(C#N)ccc34)n2)CN1 (stereo not given) + CCn1c(-c2cc(N3CCN(C)CC3)cnc2C(C)OC)c2c3cc(ccc31)-c1csc(n1)CC(NC(=O)C1CC1C)C(=O)N1CCCC(N1)C(=O)OCC(C)(C)C2
Target Or Test System: 485368-065-R3-J5-PDC spheroids with HUVEC/MSC, viability;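 also: spheroids exposed to agents for seven days before readout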
Measure: IC50
Obs Value: < 0.949 nM
//
Compound: NC1c2ccccc2OC12CCN(c1cnc3c(N4CCCc5ncccc54)n[nH]c3n1)CC2 (stereo not given) + CCn1c(-c2cccnc2C(C)OC)c2c3cc(ccc31)N1CCOC(CC(NC(=O)C(C(C)C)N(C)C(=O)C3(F)CCN(C(=O)C#CC(C)(C)N(C)C)CC3)C(=O)N3CCCC(N3)C(=O)OCC(C)(C)C2)C1
Target Or Test System: 485368-065-R3-J5-PDC spheroids with HUVEC/MSC, viability;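 also: spheroids exposed to agents for seven days before readout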
Measure: IC50
Obs Value: > 10000 nM
//
Compound: CC(C)n1nc(-c2ccc3oc(N)nc3c2)c2c(N)ncnc21 + CCn1c(-c2cccnc2C(C)OC)c2c3cc(ccc31)N1CCOC(CC(NC(=O)C(C(C)C)N(C)C(=O)C3(F)CCN(C(=O)C#CC(C)(C)N(C)C)CC3)C(=O)N3CCCC(N3)C(=O)OCC(C)(C)C2)C1
Target Or Test System: 485368-065-R3-J5-PDC spheroids with HUVEC/MSC, viability;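 also: spheroids exposed to agents for seven days before readout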
Measure: IC50
Obs Value: 19.9 nM
//
Compound: C[C@@H](NC(=O)c1ncnc(N)c1Cl)c1ncc(C(=O)Nc2cc(C(F)(F)F)c(Cl)cn2)s1 + CCn1c(-c2cc(N3CCN(C)CC3)cnc2C(C)OC)c2c3cc(ccc31)-c1csc(n1)CC(NC(=O)C1CC1C)C(=O)N1CCCC(N1)C(=O)OCC(C)(C)C2
Target Or Test System: 485368-065-R3-J5-PDC spheroids with HUVEC/MSC, viability;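 also: spheroids exposed to agents for seven days before readout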
Measure: IC50
Obs Value: < 31.6 nM
//
Compound: CCc1c2c(nc3ccc(O)cc13)-c1cc3c(c(=O)n1C2)COC(=O)[C@]3(O)CC + CCn1c(-c2cc(N3CCN(C)CC3)cnc2C(C)OC)c2c3cc(ccc31)-c1csc(n1)CC(NC(=O)C1CC1C)C(=O)N1CCCC(N1)C(=O)OCC(C)(C)C2
Target Or Test System: 485368-065-R3-J5-PDC spheroids with HUVEC/MSC, viability;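 also: spheroids exposed to agents for seven days before readout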
Measure: IC50
Obs Value: < 0.949 nM
//
Compound: O=C(c1ccc(F)c(F)c1Nc1ccc(I)cc1F)N1CC(O)([C@@H]2CCCCN2)C1 + CCn1c(-c2cccnc2C(C)OC)c2c3cc(ccc31)N1CCOC(CC(NC(=O)C(C(C)C)N(C)C(=O)C3(F)CCN(C(=O)C#CC(C)(C)N(C)C)CC3)C(=O)N3CCCC(N3)C(=O)OCC(C)(C)C2)C1
Target Or Test System: 485368-065-R3-J5-PDC spheroids with HUVEC/MSC, viability;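 also: spheroids exposed to agents for seven days before readout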
Measure: IC50
Obs Value: 59.5 nM
//
Compound: CCN1CCN(Cc2ccc(Nc3ncc(F)c(-c4cc(F)c5nc(C)n(C(C)C)c5c4)n3)nc2)CC1 + CCn1c(-c2cc(N3CCN(C)CC3)cnc2C(C)OC)c2c3cc(ccc31)-c1csc(n1)CC(NC(=O)C1CC1C)C(=O)N1CCCC(N1)C(=O)OCC(C)(C)C2
Target Or Test System: 485368-065-R3-J5-PDC spheroids with HUVEC/MSC, viability;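 also: spheroids exposed to agents for seven days before readout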
Measure: IC50
Obs Value: < 3.16 nM
//
Compound: CC(C)NCC(C(=O)N1CCN(c2ncnc3c2C(C)CC3O)CC1)c1ccc(Cl)cc1 (stereo not given) + CCn1c(-c2cc(N3CCN(C)CC3)cnc2C(C)OC)c2c3cc(ccc31)-c1csc(n1)CC(NC(=O)C1CC1C)C(=O)N1CCCC(N1)C(=O)OCC(C)(C)C2
Target Or Test System: 485368-065-R3-J5-PDC spheroids with HUVEC/MSC, viability;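 also: spheroids exposed to agents for seven days before readout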
Measure: IC50
Obs Value: < 31.6 nM
//
Compound: CC1(C)CCC(Nc2ncc(C(F)(F)F)c(-c3c[nH]c4c(P(C)(C)=O)c(C#N)ccc34)n2)CN1 (stereo not given) + CCn1c(-c2cccnc2C(C)OC)c2c3cc(ccc31)N1CCOC(CC(NC(=O)C(C(C)C)N(C)C(=O)C3(F)CCN(C(=O)C#CC(C)(C)N(C)C)CC3)C(=O)N3CCCC(N3)C(=O)OCC(C)(C)C2)C1
Target Or Test System: 485368-065-R3-J5-PDC spheroids with HUVEC/MSC, viability;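 also: spheroids exposed to agents for seven days before readout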
Measure: IC50
Obs Value: 8.62 nM
//
Compound: CC(C)NCC(C(=O)N1CCN(c2ncnc3c2C(C)CC3O)CC1)c1ccc(Cl)cc1 (stereo not given) + CCn1c(-c2cccnc2C(C)OC)c2c3cc(ccc31)N1CCOC(CC(NC(=O)C(C(C)C)N(C)C(=O)C3(F)CCN(C(=O)C#CC(C)(C)N(C)C)CC3)C(=O)N3CCCC(N3)C(=O)OCC(C)(C)C2)C1
Target Or Test System: 485368-065-R3-J5-PDC spheroids with HUVEC/MSC, viability;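 also: spheroids exposed to agents for seven days before readout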
Measure: IC50
Obs Value: > 10000 nM
//
Compound: C=CC(=O)N1CCN(c2nc(OCC3CCCN3C)nc3c(F)c(-c4nc(N)cc(C)c4C(F)(F)F)c(Cl)cc23)C(C)C1 (stereo not given) + CCn1c(-c2cccnc2C(C)OC)c2c3cc(ccc31)N1CCOC(CC(NC(=O)C(C(C)C)N(C)C(=O)C3(F)CCN(C(=O)C#CC(C)(C)N(C)C)CC3)C(=O)N3CCCC(N3)C(=O)OCC(C)(C)C2)C1
Target Or Test System: 485368-065-R3-J5-PDC spheroids with HUVEC/MSC, viability;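 also: spheroids exposed to agents for seven days before readout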
Measure: IC50
Obs Value: > 1000 nM
//
Compound: Cc1nc(N2CCC3(CC2)COC(C)C3N)c(CO)nc1Sc1ccnc(N)c1Cl (stereo not given) + CCn1c(-c2cc(N3CCN(C)CC3)cnc2C(C)OC)c2c3cc(ccc31)-c1csc(n1)CC(NC(=O)C1CC1C)C(=O)N1CCCC(N1)C(=O)OCC(C)(C)C2
Target Or Test System: 485368-065-R3-J5-PDC spheroids with HUVEC/MSC, viability;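 also: spheroids exposed to agents for seven days before readout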
Measure: IC50
Obs Value: < 31.6 nM
